- Tested on: RSV A2
- Measurement description: RSV plaque reduction assay
- Assay type: cell-based, RSV (RSV A2 ECACC, 0709161v)
- Experimental parameters: human respiratory syncytial virus, HepG2, 48 h, Hep-G2 cells, RSV A2, 2 days; mean of at least two experiments
- Protocol: Compounds were subjected to RSV plaque reduction assays according to the following protocol. Hep-G2 cells (ECACC, 85011430) were passaged in flasks and seeded in 24-well plates in DMEM containing antibiotics and supplemented with 10% FBS. […] Cells were washed with PBS before adding 75%/25% v/v EtOH/MeOH, for 3 min. […] Following three wash steps with PBS/0.05% Tween20, 200 µL ready-to-use TrueBlue was added and plates were incubated at rt for 10-15 min before washing with water. […]
Quantity: pEC50
The scale used: pEC50 is minus the common logarithm of the concentration in molar units.

Known results for compounds:
{"Compound": "CCC1CCCn2nc(-c3ccccc3F)c(C(=O)N[C@H]3N=C(c4ccccc4)c4cccc(F)c4NC3=O)c2O1 (single isomer, unassigned) [Example 25-1]", "System name": "RSV A2", "pEC50": 7.03}
{"Compound": "CCNc1ccc(-c2nn3c(c2C(=O)N[C@H]2N=C(c4ccccc4)c4cccc(F)c4NC2=O)OC(C)CCC3)c(F)n1 (stereo partly drawn) [Example 11]", "System name": "RSV A2", "pEC50": 7.74}
{"Compound": "O=C(N[C@H]1N=C(c2ccccc2)c2cccc(F)c2NC1=O)c1c(-c2ccccc2F)nn2c1O[C@H]1CC[C@@H]2C1 (single isomer, unassigned)", "System name": "RSV A2", "pEC50": 7.28}
{"Compound": "CC(C)Nc1ccc(-c2nn3c(c2C(=O)N[C@H]2N=C(c4ccccc4)c4ccccc4NC2=O)OC(C)CCC3)c(F)n1 (single isomer, unassigned) [Example 12-1]", "System name": "RSV A2", "pEC50": 7.46}
{"Compound": "CC(C)Nc1ccc(-c2nn3c(c2C(=O)N[C@H]2N=C(c4ccccc4)c4ccccc4NC2=O)OC(C)CCC3)c(F)n1 (stereo partly drawn) [Example 12]", "System name": "RSV A2", "pEC50": 7.47}

Please find the next compound below.
Request: Tell me the measured pEC50 of O=C(NC1N=C(c2ccccc2)c2cccc(F)c2NC1=O)c1c(-c2ccccc2F)nn2c1OCC(N1CCOCC1)CC2 (stereo in doubt) , please.
Response: 6.81

---

- Measurement description: Liver microsomal stability (human)
- Assay type: in vitro ADME
- Experimental parameters: pooled liver microsomes, pH 7.4, 0.5 mg/mL protein, 1 µM compound, read-out: Liver Microsomal Stability t½
Quantity: half-life at 1 µM (h)
Give the number; h is assumed, so skip it.

{"Compound": "O=C(N[C@H]1N=C(c2ccccc2)c2cccc(F)c2NC1=O)c1c(-c2ccccc2F)nn2c1OCC(F)(F)CC2 [Example 28]", "Reading unit": "h", "half-life at 1 µM": 11.2}

Please find the next compound below.
Request: Tell me the measured half-life at 1 µM of O=C(N[C@H]1N=C(c2ccccc2)c2cccc(F)c2NC1=O)c1c(-c2ccccc2F)nn2c1OCCCC2 [Example 2] , please.
Response: 6.05

---

- System: RSV A2
- Measurement description: RSV plaque reduction assay
- Assay type: cell-based, RSV (RSV A2 ECACC, 0709161v)
- Experimental parameters: human respiratory syncytial virus, HepG2, 48 h, Hep-G2 cells, RSV A2, 2 days; mean of at least two experiments
- Procedure: Compounds were subjected to RSV plaque reduction assays according to the following protocol. Hep-G2 cells (ECACC, 85011430) were passaged in flasks and seeded in 24-well plates in DMEM containing antibiotics and supplemented with 10% FBS. […] Cells were washed with PBS before adding 75%/25% v/v EtOH/MeOH, for 3 min. […] Following three wash steps with PBS/0.05% Tween20, 200 µL ready-to-use TrueBlue was added and plates were incubated at rt for 10-15 min before washing with water. […]
Quantity: pEC50
The scale used: pEC50 is minus the common logarithm of the concentration in molar units.

Known results for compounds:
{"Compound": "CC1(C)CCCn2nc(-c3ccccc3F)c(C(=O)N[C@H]3N=C(c4ccccc4)c4cccc(F)c4NC3=O)c2O1", "System name": "RSV A2", "pEC50": 7.11}
{"Compound": "CC1CCCn2nc(-c3ccc(F)cc3F)c(C(=O)N[C@H]3N=C(c4ccccc4)c4ccccc4NC3=O)c2O1 (single isomer, unassigned)", "System name": "RSV A2", "pEC50": 7.55}
{"Compound": "O=C(N[C@H]1N=C(c2ccccc2)c2cccc(F)c2NC1=O)c1c(-c2ccccc2F)nn2c1OCCCC2", "System name": "RSV A2", "pEC50": 7.48}
{"Compound": "CCC1CCCn2nc(-c3ccc(C)nc3)c(C(=O)N[C@H]3N=C(c4ccccc4)c4ccccc4NC3=O)c2O1 (stereo partly drawn) [Example 26]", "System name": "RSV A2", "pEC50": 6.23}
{"Compound": "CC1CCCOc2c(C(=O)NC3N=C(c4ccccc4)c4cccc(F)c4NC3=O)c(-c3ccccc3F)nn21 (single isomer, unassigned)", "System name": "RSV A2", "pEC50": 7.33}

Please find the next compound below.
Request: Tell me the measured pEC50 of CC(C)Nc1ccc(-c2nn3c(c2C(=O)N[C@H]2N=C(c4ccccc4)c4cccc(F)c4NC2=O)OC(C)CCC3)c(F)n1 (single isomer, unassigned) [Example 13-1] , please.
Response: 7.59

---

This listing pairs compounds with measured CC50.
- System: Hep-G2 cells
- Measurement description: Cell cytotoxicity CC50
- Format: cell-based
- Experimental parameters: mean of at least two experiments
- From the text: Plates were scanned and analysed using the Immunospot S6 Macro analyser, which is equipped with BioSpot analysis software for counting immunostained plaques (virospots). Plaque counts were used to calculate % infection relative to the mean of the plaque count in the virus control wells for RSV. […] Plaque EC50 and cell toxicity CC50 values are a mean of at least two experiments and figures are rounded to whole units.

{"Compound": "CC(C)Nc1ccc(-c2nn3c(c2C(=O)N[C@H]2N=C(c4ccccc4)c4ccccc4NC2=O)OC(C)CCC3)c(F)n1 (single isomer, unassigned)", "Result": "> 25 µM"}
{"Compound": "CC(C)Nc1ccc(-c2nn3c(c2C(=O)N[C@H]2N=C(c4ccccc4)c4cccc(F)c4NC2=O)OC(C)CCC3)c(F)n1 (single isomer, unassigned)", "Result": "> 25 µM"}
{"Compound": "CC1CCCn2nc(-c3ccc(F)cc3F)c(C(=O)N[C@H]3N=C(c4ccccc4)c4ccccc4NC3=O)c2O1 (single isomer, unassigned)", "Result": "> 25 µM"}
{"Compound": "CCC1CCCn2nc(-c3ccccc3F)c(C(=O)N[C@H]3N=C(c4ccccc4)c4cccc(F)c4NC3=O)c2O1 (single isomer, unassigned)", "Result": "> 25 µM"}

Request: Query for Hep-G2 cells: what CC50 does the record show for CC1CCCn2nc(-c3ccc(F)cc3F)c(C(=O)N[C@H]3N=C(c4ccccc4)c4cccc(F)c4NC3=O)c2O1 (single isomer, unassigned) ?
Response: > 25 µM

Request: Query for Hep-G2 cells: what CC50 does the record show for CCNc1ccc(-c2nn3c(c2C(=O)N[C@H]2N=C(c4ccccc4)c4ccccc4NC2=O)OC(C)CCC3)c(F)n1 (single isomer, unassigned) ?
Response: > 25 µM

Request: Query for Hep-G2 cells: what CC50 does the record show for CCC1CCCn2nc(-c3ccc(C)nc3)c(C(=O)N[C@H]3N=C(c4ccccc4)c4cccc(F)c4NC3=O)c2O1 (single isomer, unassigned) ?
Response: > 25 µM

Request: Query for Hep-G2 cells: what CC50 does the record show for CC1CCCOc2c(C(=O)NC3N=C(c4ccccc4)c4cccc(F)c4NC3=O)c(-c3ccccc3F)nn21 (single isomer, unassigned) ?
Response: > 25 µM

Request: Query for Hep-G2 cells: what CC50 does the record show for CC1CCCOc2c(C(=O)NC3N=C(c4ccccc4)c4ccccc4NC3=O)c(-c3ccccc3F)nn21 (single isomer, unassigned) ?
Response: > 25 µM

Request: Query for Hep-G2 cells: what CC50 does the record show for CCC1CCCn2nc(-c3ccc(C)nc3)c(C(=O)N[C@H]3N=C(c4ccccc4)c4ccccc4NC3=O)c2O1 (single isomer, unassigned) ?
Response: > 25 µM

Request: Query for Hep-G2 cells: what CC50 does the record show for CCC1CCCn2nc(-c3ccccc3F)c(C(=O)N[C@H]3N=C(c4ccccc4)c4ccccc4NC3=O)c2O1 (single isomer, unassigned) ?
Response: > 25 µM

---

- Measurement description: Cell cytotoxicity CC50
- Type: cell-based
- Experimental parameters: human; mean of at least two experiments
This listing pairs compounds with measured CC50.

Request: Tell me the measured CC50 of O=C(N[C@H]1N=C(c2ccccc2)c2cccc(F)c2NC1=O)c1c(-c2ccccc2F)nn2c1O[C@H]1CC[C@@H]2C1 (single isomer, unassigned) , please.
Response: > 25 µM

Request: Tell me the measured CC50 of "CC1(C)CCCn2nc(-c3ccccc3F)c(C(=O)N[C@H]3N=C(c4ccccc4)c4ccccc4NC3=O)c2O1" , please.
Response: > 25 µM

Request: Tell me the measured CC50 of "O=C(N[C@H]1N=C(c2ccccc2)c2ccccc2NC1=O)c1c(-c2ccccc2F)nn2c1OCCCC2" , please.
Response: > 25 µM
